# system: T1, human TREM2 expressed on cells (human, UniProt Q9NZC2 19-230)
# T1 construct: BW5147.G.1.4 cells stably expressing human TREM2 together with Dap12, or endogenous TREM2 of primary human myeloid cells; also called huT2 BW; hTREM2 expressing cell line
# T1 sequence: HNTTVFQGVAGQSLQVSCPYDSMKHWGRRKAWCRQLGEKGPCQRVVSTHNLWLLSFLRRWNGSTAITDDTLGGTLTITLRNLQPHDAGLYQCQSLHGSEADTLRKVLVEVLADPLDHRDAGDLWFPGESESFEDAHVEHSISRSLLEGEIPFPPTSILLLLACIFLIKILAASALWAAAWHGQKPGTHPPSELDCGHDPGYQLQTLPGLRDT
# testSummary: FACS, hTREM2 BW cells
Here, each record is paired with measured cell binding (FOB) data.
Answers without a unit are incomplete; give the number and then its unit.

binder="AL2p-h21 (antibody, human IgG1, V domains shown, humanized, human IgG1; Fab and IgG formats under one id) VH: QVQLVQSGAEVKKPGASVKVSCKASGYAFSSSWMNWVRQAPGQGLEWMGRIYPGDGDTNYAQKFQGRVTMTRDTSTSTVYMELSSLRSEDTAVYYCARLLRNQPGESYAMDYWGQGTLVTVSS VL: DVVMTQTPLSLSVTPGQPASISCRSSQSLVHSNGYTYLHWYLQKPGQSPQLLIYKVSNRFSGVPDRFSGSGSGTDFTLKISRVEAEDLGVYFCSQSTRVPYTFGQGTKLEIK" measured="76 FOB"

Problem: Endpoint output: cell binding (FOB) of AL2p-h59 (antibody, human IgG1, V domains shown, humanized, human IgG1; Fab and IgG formats under one id) VH: QVQLVQSGAEVKKPGASVKVSCKASGYAFSSSWMNWVRQAPGQRLEWMGRIYPGDGDTNYAQKFQGRVTITRDTSASTAYMELSSLRSEDTAVYYCARLLRNQPGESYAMDYWGQGTLVTVSS VL: DIVMTQSPLSLPVTPGEPASISCRSSQSLVHSNGYTYLHWYLQKPGQSPQLLIYKVSNRFSGVPDRFSGSGSGTDFTLKISRVEAEDVGVYYCSQSTRVPYTFGGGTKVEIK . Value?
Result: 69 FOB

Problem: Endpoint output: cell binding (FOB) of AL2p-h19 (antibody, human IgG1, V domains shown, humanized, human IgG1; Fab and IgG formats under one id) VH: QVQLVQSGAEVKKPGSSVKVSCKASGYAFSSSWMNWVRQAPGQGLEWMGRIYPGDGDTNYAQKFQGRATITADTSTSTAYMELSSLRSEDTAVYYCARLLRNQPGESYAMDYWGQGTLVTVSS VL: DIVMTQTPLSLSVTPGQPASISCRSSQSLVHSNGYTYLHWYLQKPGQSPQLLIYKVSNRFSGVPDRFSGSGSGTDFTLKISRVEAEDVGVYYCSQSTRVPYTFGQGTKLEIK . Value?
Result: 87 FOB
